Recorded inhibition at 0.005 µM by entry
# assaySystem: PfPFT (Plasmodium falciparum, UniProt Q8I503+Q8IHP6)
# Sequence (Q8I503 1-521): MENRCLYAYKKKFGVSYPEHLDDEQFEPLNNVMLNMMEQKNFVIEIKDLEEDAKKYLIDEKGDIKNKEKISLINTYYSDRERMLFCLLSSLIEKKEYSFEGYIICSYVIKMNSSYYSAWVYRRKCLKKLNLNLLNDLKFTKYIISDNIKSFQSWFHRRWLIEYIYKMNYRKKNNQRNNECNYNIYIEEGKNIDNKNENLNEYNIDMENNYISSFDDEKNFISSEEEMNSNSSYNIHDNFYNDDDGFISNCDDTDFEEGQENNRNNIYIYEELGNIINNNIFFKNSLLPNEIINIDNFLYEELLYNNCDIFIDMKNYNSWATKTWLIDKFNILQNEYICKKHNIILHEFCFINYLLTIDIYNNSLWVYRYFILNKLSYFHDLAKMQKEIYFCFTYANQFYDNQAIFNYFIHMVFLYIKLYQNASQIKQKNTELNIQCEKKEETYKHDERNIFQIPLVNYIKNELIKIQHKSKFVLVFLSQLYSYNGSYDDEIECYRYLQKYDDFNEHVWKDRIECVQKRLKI
# Sequence (Q8IHP6 1-923): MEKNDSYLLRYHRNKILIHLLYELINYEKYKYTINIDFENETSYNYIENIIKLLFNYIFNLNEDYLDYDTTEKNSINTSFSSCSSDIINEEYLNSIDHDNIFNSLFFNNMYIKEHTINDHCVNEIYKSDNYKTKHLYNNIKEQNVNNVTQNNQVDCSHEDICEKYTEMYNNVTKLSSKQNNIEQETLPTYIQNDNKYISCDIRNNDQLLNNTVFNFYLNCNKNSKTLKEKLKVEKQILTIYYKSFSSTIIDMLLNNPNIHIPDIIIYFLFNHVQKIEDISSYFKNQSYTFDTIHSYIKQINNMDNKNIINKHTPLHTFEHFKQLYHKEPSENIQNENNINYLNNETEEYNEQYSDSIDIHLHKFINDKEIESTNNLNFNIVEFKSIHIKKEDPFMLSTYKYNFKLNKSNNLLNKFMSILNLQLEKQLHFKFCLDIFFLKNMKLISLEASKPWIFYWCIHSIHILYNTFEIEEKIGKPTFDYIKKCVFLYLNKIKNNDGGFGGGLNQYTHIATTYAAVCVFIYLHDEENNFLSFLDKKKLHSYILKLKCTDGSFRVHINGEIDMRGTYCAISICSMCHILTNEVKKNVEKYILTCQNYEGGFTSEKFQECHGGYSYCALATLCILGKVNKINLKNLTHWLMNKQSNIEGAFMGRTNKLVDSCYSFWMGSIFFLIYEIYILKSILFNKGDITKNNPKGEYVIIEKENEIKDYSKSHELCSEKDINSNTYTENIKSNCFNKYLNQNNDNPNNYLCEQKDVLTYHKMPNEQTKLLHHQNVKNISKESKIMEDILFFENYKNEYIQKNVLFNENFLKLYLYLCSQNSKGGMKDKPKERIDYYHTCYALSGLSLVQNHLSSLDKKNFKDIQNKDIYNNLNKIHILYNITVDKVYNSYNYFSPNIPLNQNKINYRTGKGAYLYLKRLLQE
# testName: PfPFT inhibition, scintillation proximity assay with partially purified PfPFT
# Type: biochemical
# experimentalConditions: read-out: % Inhibition of PfPFT at 5 nM, inhibitor at 5 nM
measurementType: inhibition at 0.005 µM

>>> print(df.to_string())
                               linenotation         measurementtype  result
0  CC(=O)N(CCN(Cc1cncn1C)c1ccc(C#N)cc1)Cc1ccccc1  inhibition at 0.005 µM      0%
1  CC(C)C(=O)N(CCN(Cc1cncn1C)c1ccc(C#N)cc1)Cc1ccccc1  inhibition at 0.005 µM      0%
2  Cn1cnc(S(=O)(=O)N(CCN(Cc2cncn2C)c2ccc(C#N)cc2)Cc2ccc(-n3cccc3)cc2)c1  inhibition at 0.005 µM     39%
3  Cn1cnc(S(=O)(=O)N(CCN(Cc2cncn2C)c2ccc(C#N)cc2)CC2CCOCC2)c1  inhibition at 0.005 µM     28%
4  C=CCN(CCN(Cc1cncn1C)c1ccc(C#N)cc1)S(=O)(=O)c1cn(C)cn1  inhibition at 0.005 µM      1%
5  CC(=O)N1CCC(CN(CCN(Cc2cncn2C)c2ccc(C#N)cc2)S(=O)(=O)c2cn(C)cn2)CC1  inhibition at 0.005 µM      8%
6  Cc1ccc(CN(CCN(Cc2cncn2C)c2ccc(C#N)cc2)S(=O)(=O)c2cn(C)cn2)cc1  inhibition at 0.005 µM     45%
7  CN(C)c1cccc2c(S(=O)(=O)N(CCN(Cc3cncn3C)c3ccc(C#N)cc3)Cc3ccccc3)cccc12  inhibition at 0.005 µM      6%
8  C=C(Br)CN(CCN(Cc1cncn1C)c1ccc(C#N)cc1)S(=O)(=O)c1cn(C)cn1  inhibition at 0.005 µM     25%

Source: patent US20080312287A1
